- Tested on: CD2F1 mice, L1210 leukemia ip, survival T/C
- Protocol description: NCI In Vivo Anticancer Drug Screen. Data for tumor model L1210 Leukemia (intraperitoneal) in CD2F1 (CDF1) mice
- Condition context: endpoint: mean survival time; dose: 100.0 mg/kg/injection; schedule: Q04DX003 (ip); vehicle: saline with Tween-80; higher = longer survival
Inconclusive results and toxic doses are left out.
For each entry below, report its T/C value.

Fill in: T/C of O=C(O)C1C2CCCCC21 (stereo not drawn) is ___
98 % of control

For OC(Cc1nc2ccccc2s1)(C(F)(F)F)C(F)(F)F then?
95 % of control

For O=S(=O)(/C=C\c1ccccc1)/C=C/c1ccccc1 then?
91 % of control

For O=C(CCl)Nc1cccc2c1CCCC2 then?
98 % of control

For O=[N+]([O-])c1ccc(S(=O)(=O)OCc2ccccc2OS(=O)(=O)c2ccc([N+](=O)[O-])cc2)cc1 then?
93 % of control

For CC(C)=CCN1C(=O)c2ccccc2C1=O then?
110 % of control

For [Cl][Pt+2][Cl].[NH-]N1CCN([NH-])CC1 then?
94 % of control

For O=S(=O)(OCC1CC2CCC1CC2)c1ccc(Br)cc1 (stereo not drawn) then?
95 % of control
